Hello, the source for this data is ChEMBL document CHEMBL1143363, in case you need it.

System under test: C-C chemokine receptor type 2 (Homo sapiens)
Sequence (P41597 whole entry): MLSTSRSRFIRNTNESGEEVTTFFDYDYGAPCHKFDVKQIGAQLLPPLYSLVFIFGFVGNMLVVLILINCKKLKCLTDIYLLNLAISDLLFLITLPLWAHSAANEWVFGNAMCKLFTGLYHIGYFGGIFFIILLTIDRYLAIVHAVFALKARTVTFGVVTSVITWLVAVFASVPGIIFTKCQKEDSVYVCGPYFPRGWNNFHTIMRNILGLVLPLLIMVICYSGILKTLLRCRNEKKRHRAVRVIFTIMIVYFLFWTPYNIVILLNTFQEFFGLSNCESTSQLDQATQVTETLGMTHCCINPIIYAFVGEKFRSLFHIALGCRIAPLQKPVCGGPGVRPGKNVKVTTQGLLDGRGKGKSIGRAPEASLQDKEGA
Method summary: Displacement of [125I]MCP1 from CCR2 in human PBMCs
Measure name: IC50 (nM)
Expressed in nM, but write only the number.

Query block: Request the reported IC50 associated with CSc1ccc(C(=O)NC2CCC(N)CC2NC(=O)CNC(=O)c2cc(C(F)(F)F)ccc2N)cc1 (racemic)
Result block: 167

Query block: What do we get for CN(C)C1CCC(NC(=O)CNC(=O)c2cccc(C(F)(F)F)c2)C(NCc2ccc(Cl)c(Cl)c2)C1 (racemic) ?
Result block: 61.5

Query block: What do we get for CN(C)C1CCC(NC(=O)CNC(=O)c2cccc(C(F)(F)F)c2)C(NCc2ccc3[nH]ccc3c2)C1 (racemic) ?
Result block: 3.1
